- Test system: RSK3(Kin.Dom.2-C-terminal);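 note: KINOMEscan kinase panel screen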
- Construct: gene RPS6KA2
- test.parameters: concentration: 1 μM, replicates: in singlicate; n = 1
In this section, each of the molecules is paired with its reported %Inh.
# value in %; strip the unit string

- molecule: "O=C(Nc1n[nH]c2cc(-c3cccc(F)c3)ccc12)C1CC1"
  endpoint.value: 0

Recorded %Inh (molecule "Fc1ccc(-c2nn3c(OCC(F)(F)F)cccc3c2-c2ccncc2)cc1" ): 8

Recorded %Inh (molecule "O=c1cc(N2CCOCC2)nc2n(Cc3cccc(C(F)(F)F)c3)ccn12" ): 6

Recorded %Inh (molecule "Fc1ccc(-c2ncn(CCCN3CCOCC3)c2-c2ccccn2)cc1" ): 35

Recorded %Inh (molecule "O=C(NCCNc1ccnc(Nc2ccc(F)cc2)n1)Nc1ccccc1F" ): 0

Recorded %Inh (molecule "O=C1NC(=O)C(N2CCc3ccccc32)=C1c1cccc(Cl)c1" ): 21

Recorded %Inh (molecule Cc1c(Cn2c(C)nn3c(=O)cc(N4CCOC(C)C4)nc23)cccc1C(F)(F)F (stereo not shown) ): 0

Recorded %Inh (molecule "COc1cc2ncn(-c3cc(OCc4sccc4Cl)c(C(N)=O)s3)c2cc1OC" ): 0

Recorded %Inh (molecule "Cc1cccc(Cn2ccn3c(=O)cc(N4CCOCC4)nc23)c1" ): 44

Recorded %Inh (molecule "O=C(c1ccc(-c2cc(-c3c[nH]nc3-c3ccccn3)ccn2)cc1)N1CCOCC1" ): 0

Recorded %Inh (molecule COc1ccc(Nc2nccc(N3CCC(NC(=O)Nc4cc(C)ccc4C)C3)n2)cc1 (stereo not shown) ): 0

Recorded %Inh (molecule "Nc1nccc(-c2c(-c3ccc(F)cc3)ncn2C2CCN(CC(F)(F)F)CC2)n1" ): 35

Recorded %Inh (molecule "O=c1cc(N2CCOCC2)nc2n(Cc3cccc(Cl)c3Cl)c(C3CC3)nn12" ): 17

Recorded %Inh (molecule Cc1nnc(-c2ccc3occ(-c4ccc(C(C)O)cc4)c3c2)o1 (stereo not shown) ): 3

Recorded %Inh (molecule COc1ccc(CNC(=O)NC2CCN(c3ccnc(Nc4ccc(OC)cc4)n3)C2)cc1 (stereo not shown) ): 0

Recorded %Inh (molecule "O=c1cc(N2CCOCC2)nc2n(Cc3cccc(F)c3)ccn12" ): 0

Recorded %Inh (molecule "Fc1ccc(-c2ncn(CCCN3CCOCC3)c2-c2cccnc2)cc1" ): 27

Recorded %Inh (molecule "COc1ccc(Nc2ncc(C#N)c(Nc3ccccc3C(N)=O)n2)cc1N1CCN(C)CC1.Cl" ): 11

Recorded %Inh (molecule "Cl.Nc1ncnc2occ(-c3ccc(NC(=O)Nc4cc(C(F)(F)F)ccc4F)cc3)c12" ): 77
